src = patent US5527781A

Assay: in vivo
Conditions: mouse, iv, pH 7
Below, each entry is listed with its recorded LD50.

>>> measured_value("NCC[C@H](O)C(=O)N[C@@H]1C[C@H](N)[C@@H](O[C@H]2O[C@H](CN)CC[C@H]2N)[C@H](O)[C@H]1O[C@H]1O[C@H](CO)[C@@H](O)[C@H](N)[C@H]1O [HBK, reference compound]")
"70 mg/kg"

What value of LD50 has been recorded for this entry: CN[C@@H]1[C@@H](O)[C@@H](O[C@@H]2[C@@H](O)[C@H](O[C@H]3O[C@H]([C@@H](C)N)CC[C@H]3N)[C@@H](N)C[C@H]2N)OC[C@]1(C)O [Genta-C2, gentamicin C2, reference compound]
~90 mg/kg

Similarly, NC[C@@H]1CC[C@@H](N)[C@@H](O[C@H]2[C@H](F)[C@@H](O[C@H]3O[C@H](CO)[C@@H](O)[C@H](N)[C@H]3O)[C@H](N)C[C@@H]2N)O1 [Compound 5F-DKB, 5,3',4'-trideoxy-5-fluorokanamycin B, reference compound] ?
~135 mg/kg

Similarly, NCC[C@H](O)C(=O)N[C@@H]1C[C@H](N)[C@@H](O[C@H]2O[C@H](CN)[C@@H](O)C[C@H]2N)C(F)(F)[C@H]1O[C@H]1O[C@H](CO)[C@@H](O)[C@H](N)[C@H]1O ?
> 300 mg/kg

###

Below, each entry is listed with its recorded MIC.
System: Escherichia coli K-12 R5
Assay: microbe, parasite or virus in culture
Format: cell-based
Conditions: K12R5; Escherichia coli K-12 R5; resistance mechanism AAC(6'); Mueller-Hinton agar, 37° C
Quick note: give the figure in µg/mL, leave out the unit.

>>> measured_value("NCC[C@H](O)C(=O)N[C@@H]1C[C@H](N)[C@@H](O[C@H]2O[C@H](CN)[C@@H](O)[C@H](O)[C@H]2O)[C@H](O)[C@H]1O[C@H]1O[C@H](CO)[C@@H](O)[C@H](N)[C@H]1O [Amikacin, amikacin, reference compound]")
100
>>> measured_value("CCN[C@@H]1C[C@H](N)[C@@H](O[C@H]2OC(CN)=CC[C@H]2N)C(F)(F)[C@H]1O[C@H]1OC[C@](C)(O)[C@H](NC)[C@H]1O")
50

Recall the recorded MIC for NC[C@H]1O[C@H](O[C@@H]2[C@@H](N)C[C@@H](N)[C@H](O[C@H]3O[C@H](CO)[C@@H](O)[C@H](N)[C@H]3O)C2(F)F)[C@H](N)[C@@H](O)[C@@H]1O with Escherichia coli K-12 R5 and state it.
100

###

Read-out record for Serratia marcescens: MIC
Answer shape: numeric part, then the unit.

>>> measured_value("NCC[C@H](O)C(=O)N[C@@H]1C[C@H](N)[C@@H](O[C@H]2O[C@H](CN)CC[C@H]2N)C(F)(F)[C@H]1O[C@H]1O[C@H](CO)[C@@H](O)[C@H](N)[C@H]1O [Compound 5FF-DKB-AHB]")
"1.56 µg/mL"

Consider the additional compound presented here.
What value of MIC has been recorded for this entry: NCC[C@H](O)C(=O)N[C@@H]1C[C@H](N)[C@@H](O[C@H]2O[C@H](CN)[C@@H](O)C[C@H]2N)[C@H](F)[C@H]1O[C@H]1O[C@H](CO)[C@@H](O)[C@H](N)[C@H]1O [Compound 5F-TOB-AHB, reference compound]
3.12 µg/mL
